experimental-system: T1, Bre1-LR (Bre1 residues 227–700, LBD and RING domains), 6× histidine tag (budding yeast, UniProt Q07457 227-700)
T1 construct: two Bre1 polypeptides form the dimeric coiled-coils of the LBD in the crystal structure; also called WT; source: E. coli BL21 Rosetta (DE3), purified (Ni-NTA, heparin, gel filtration)
T1 sequence (looked up): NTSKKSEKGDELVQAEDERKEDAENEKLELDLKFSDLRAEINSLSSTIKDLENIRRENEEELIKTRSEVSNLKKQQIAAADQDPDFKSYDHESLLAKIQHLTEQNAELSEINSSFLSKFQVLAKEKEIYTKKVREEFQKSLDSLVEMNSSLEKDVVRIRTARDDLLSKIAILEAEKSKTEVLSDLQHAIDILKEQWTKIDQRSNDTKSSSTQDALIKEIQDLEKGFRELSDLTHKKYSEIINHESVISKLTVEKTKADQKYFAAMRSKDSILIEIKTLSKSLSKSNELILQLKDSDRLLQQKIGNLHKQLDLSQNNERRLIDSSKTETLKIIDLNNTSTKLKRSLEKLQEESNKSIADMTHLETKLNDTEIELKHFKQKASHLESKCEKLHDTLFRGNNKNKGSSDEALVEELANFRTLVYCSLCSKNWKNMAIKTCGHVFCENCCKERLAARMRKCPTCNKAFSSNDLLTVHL
assay-comment: SPR; Lge1-CT immobilised on a CM5 chip, Bre1-LR flown over; Biacore 8K, 25°C, 20 mM HEPES (pH 7.5), 200 mM sodium chloride, 0.02% Tween 20
reported-conditions: both partners purified

{"columns": ["binder", "kon, M⁻¹ s⁻¹"],
 "data": [
  ["Lge1-CT L325N (domain or fragment, budding yeast, UniProt Q02796 261-332, looked up, Lge1, budding yeast, residues 261-332; source: E. coli BL21 Rosetta (DE3): cleared cell extract on chitin resin (pull-down); purified (chitin, heparin, gel filtration) for ITC and SPR) KNVKKTNNTESECEKAREVFKESDSIDSALEELNLKINSNELELRLLNNQCDKHALNIQLTQEKNDSLLLMQ", 55900],
  ["Lge1-CT K313E/H314E (domain or fragment, budding yeast, UniProt Q02796 261-332, looked up, Lge1, budding yeast, residues 261-332; source: E. coli BL21 Rosetta (DE3): cleared cell extract on chitin resin (pull-down); purified (chitin, heparin, gel filtration) for ITC and SPR) KNVKKTNNTESECEKAREVFKESDSIDSALEELNLKINSNELELRLLNNQCDEEALNIQLTQEKLDSLLLMQ", 183000],
  ["Lge1-CT I318D (domain or fragment, budding yeast, UniProt Q02796 261-332, looked up, Lge1, budding yeast, residues 261-332; source: E. coli BL21 Rosetta (DE3): cleared cell extract on chitin resin (pull-down); purified (chitin, heparin, gel filtration) for ITC and SPR) KNVKKTNNTESECEKAREVFKESDSIDSALEELNLKINSNELELRLLNNQCDKHALNDQLTQEKLDSLLLMQ", 74800]
]}

The measurements presented in this section are drawn from paper PMC12802937.
